Consider the following compounds; for each one, report its IC50.
targetDesc: Leucine aminopeptidase (Plasmodium falciparum 3D7, UniProt Q8IL11)
Sequence (Q8IL11 whole entry): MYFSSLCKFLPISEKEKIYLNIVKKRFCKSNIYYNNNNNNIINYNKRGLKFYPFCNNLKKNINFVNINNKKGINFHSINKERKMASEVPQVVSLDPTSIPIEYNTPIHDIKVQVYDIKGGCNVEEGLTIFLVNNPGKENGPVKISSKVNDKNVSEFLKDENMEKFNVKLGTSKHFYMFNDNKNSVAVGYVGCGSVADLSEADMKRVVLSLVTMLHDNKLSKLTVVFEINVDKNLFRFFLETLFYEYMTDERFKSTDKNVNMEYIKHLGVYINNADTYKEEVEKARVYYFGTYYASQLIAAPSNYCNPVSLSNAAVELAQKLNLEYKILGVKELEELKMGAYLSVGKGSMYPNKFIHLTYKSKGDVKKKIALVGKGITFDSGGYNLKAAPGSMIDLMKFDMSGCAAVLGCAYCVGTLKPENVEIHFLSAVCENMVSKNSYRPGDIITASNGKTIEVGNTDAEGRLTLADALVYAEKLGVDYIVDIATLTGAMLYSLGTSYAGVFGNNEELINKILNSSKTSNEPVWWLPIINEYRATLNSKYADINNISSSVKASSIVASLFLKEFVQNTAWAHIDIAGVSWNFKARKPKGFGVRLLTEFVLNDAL
assayComment: P. falciparum M17LAP inhibitors, primary screen, biochemical, fluorogenic H-Leu-NHMec substrate, 1536-well (AID 1619)
Format: functional
Calls of active or inactive are those of the source. No rule for the calls is given here.

IC50 for Cc1ccc(-n2c(C)cc(C(=O)COC(=O)c3ccc[nH]c3=O)c2C)cc1 ?
1.22 µM (active)

IC50 for N#Cc1c(O)nc(SCC(=O)N2c3ccccc3Sc3ccccc32)nc1-c1ccccc1 ?
10.2 µM (active)

State the recorded IC50 for this entry: CCOC(=O)c1c(-c2cccs2)csc1NC(=O)CCCC(=O)O
20.3 µM (active)

For N=C1S/C(=C\c2ccc(-c3ccccc3C(=O)O)o2)C(=O)N1c1ccc2c(c1)OCO2 , what is its reported IC50?
29 µM (active)

For the compound Nc1n[nH]c(N)c1N=Nc1ccc(Cl)cc1 , what IC50 is on record?
12.5 µM (active)

GET /values?readout=IC50&item= CCc1cc2ccccc2nc1SCC(=O)Nc1cc(OC)c(OC)cc1C(=O)O
< 1 µM (active)

Query (compound): COc1ccc2c(c1OC)C(=O)OC2Nc1nc(-c2cc3ccccc3oc2=O)cs1 (centres undefined) ; field requested: IC50
5.03 µM (active)

Look up IC50: O=C(CSc1nnc(-c2ccc(NS(=O)(=O)c3ccccc3)cc2)o1)NCC1CCCO1 (centres undefined)
6.04 µM (active)

Which IC50 value belongs to COc1ccc(-n2c(-c3cccc(C)c3[N+](=O)[O-])n[nH]c2=S)cc1 ?
23.8 µM (active)
